assay.target: Human Topoisomerase IIα (Homo sapiens)
Construct: purchased USB, Affymetrix, Waltham, MA, USA
Sequence (P11388 whole entry): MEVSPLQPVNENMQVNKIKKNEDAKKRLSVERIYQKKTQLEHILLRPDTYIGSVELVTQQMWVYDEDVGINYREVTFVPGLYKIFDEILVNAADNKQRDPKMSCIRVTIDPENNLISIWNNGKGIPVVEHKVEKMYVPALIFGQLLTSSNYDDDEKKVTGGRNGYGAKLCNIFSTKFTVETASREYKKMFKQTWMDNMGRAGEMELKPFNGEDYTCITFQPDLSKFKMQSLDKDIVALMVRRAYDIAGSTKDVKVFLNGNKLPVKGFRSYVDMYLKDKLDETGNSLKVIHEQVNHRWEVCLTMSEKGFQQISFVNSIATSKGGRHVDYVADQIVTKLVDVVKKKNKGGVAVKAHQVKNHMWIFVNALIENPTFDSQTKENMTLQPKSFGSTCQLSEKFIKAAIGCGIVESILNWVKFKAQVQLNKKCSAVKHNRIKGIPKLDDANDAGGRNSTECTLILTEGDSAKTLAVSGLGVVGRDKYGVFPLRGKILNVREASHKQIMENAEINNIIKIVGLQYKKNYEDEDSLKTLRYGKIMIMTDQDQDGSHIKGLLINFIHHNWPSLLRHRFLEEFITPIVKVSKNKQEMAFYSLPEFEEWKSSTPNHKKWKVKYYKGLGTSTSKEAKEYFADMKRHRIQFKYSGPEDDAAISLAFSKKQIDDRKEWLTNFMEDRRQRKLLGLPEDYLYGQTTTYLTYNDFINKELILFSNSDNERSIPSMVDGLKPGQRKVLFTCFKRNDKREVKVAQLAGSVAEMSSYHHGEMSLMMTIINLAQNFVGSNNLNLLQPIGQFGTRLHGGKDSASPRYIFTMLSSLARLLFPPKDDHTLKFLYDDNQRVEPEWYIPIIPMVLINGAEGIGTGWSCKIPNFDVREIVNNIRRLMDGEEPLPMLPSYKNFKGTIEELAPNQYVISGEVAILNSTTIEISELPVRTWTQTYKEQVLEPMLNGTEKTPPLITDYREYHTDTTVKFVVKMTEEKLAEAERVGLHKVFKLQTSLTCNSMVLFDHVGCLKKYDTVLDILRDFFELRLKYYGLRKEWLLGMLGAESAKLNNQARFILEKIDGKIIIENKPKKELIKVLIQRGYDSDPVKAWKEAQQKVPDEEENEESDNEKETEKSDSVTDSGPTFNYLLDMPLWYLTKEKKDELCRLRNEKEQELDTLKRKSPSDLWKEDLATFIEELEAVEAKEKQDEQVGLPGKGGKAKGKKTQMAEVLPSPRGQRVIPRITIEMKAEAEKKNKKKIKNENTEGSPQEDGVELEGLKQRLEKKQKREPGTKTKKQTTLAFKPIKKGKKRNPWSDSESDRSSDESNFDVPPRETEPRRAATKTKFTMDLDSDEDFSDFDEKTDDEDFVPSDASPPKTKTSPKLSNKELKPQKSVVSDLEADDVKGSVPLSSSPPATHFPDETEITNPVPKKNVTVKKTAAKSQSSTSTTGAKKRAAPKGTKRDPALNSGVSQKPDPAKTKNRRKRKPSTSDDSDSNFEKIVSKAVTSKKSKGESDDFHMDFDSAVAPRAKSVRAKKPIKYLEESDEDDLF
experimental.details: Topoisomerase II relaxation assay (supercoiled pBR322)
Assay type: biochemical
protocol.conditions: 20 μM compound; read-out: Topo II Inhibition (%) 20 μM
measurement.type: inhibition at 20 µM (%)
Record the value in %, omitting the unit from your answer.

Answer with reported inhibition at 20 µM of Cc1ccc2[nH]c3c(c2c1)C[C@@]1(C)C(CC[C@]2(C)C1CC=C1C4[C@@H](C)[C@H](C)CC[C@]4(C(=O)NCCCCN4CCOCC4)CC[C@]12C)C3(C)C (stereo partly drawn) 28.2

Answer with reported inhibition at 20 µM of Cc1ccc2[nH]c3c(c2c1)C[C@@]1(C)C(CC[C@]2(C)C1CC=C1C4[C@@H](C)[C@H](C)CC[C@]4(C(=O)NCCCCN(C)C)CC[C@]12C)C3(C)C (stereo partly drawn) 31.7

Answer with reported inhibition at 20 µM of CCN(CC)CCCCNC(=O)[C@]12CC[C@@H](C)[C@H](C)C1C1=CCC3[C@@]4(C)Cc5c([nH]c6ccc(C)cc56)C(C)(C)C4CC[C@@]3(C)[C@]1(C)CC2 (stereo partly drawn) 35.2

Answer with reported inhibition at 20 µM of Cc1ccc2[nH]c3c(c2c1)C[C@@]1(C)C(CC[C@]2(C)C1CC=C1C4[C@@H](C)[C@H](C)CC[C@]4(C(=O)NCCN)CC[C@]12C)C3(C)C (stereo partly drawn) 25.9

Answer with reported inhibition at 20 µM of Cc1ccc2[nH]c3c(c2c1)C[C@@]1(C)C(CC[C@]2(C)C1CC=C1C4[C@@H](C)[C@H](C)CC[C@]4(C(=O)NCCN4CCN(C)CC4)CC[C@]12C)C3(C)C (stereo partly drawn) 31.3

Answer with reported inhibition at 20 µM of Cc1ccc2[nH]c3c(c2c1)C[C@@]1(C)C(CC[C@]2(C)C1CC=C1C4[C@@H](C)[C@H](C)CC[C@]4(C(=O)NCCCN4CCCCC4)CC[C@]12C)C3(C)C (stereo partly drawn) 41.3

###

Test system: HepG2 cells
experimental.details: MTT cytotoxicity assay, HepG2
Type: cell-based, human
protocol.conditions: Homo sapiens, HepG2, 48 h, 48 h exposure
Label Yes when IC50 is strictly below 2 µM; at or above that, label No.

# strict comparison: is reported IC50 < 2 µM? input = Cc1ccc2[nH]c3c(c2c1)C[C@@]1(C)C(CC[C@]2(C)C1CC=C1C4[C@@H](C)[C@H](C)CC[C@]4(C(=O)NCCCN4CCOCC4)CC[C@]12C)C3(C)C (some centres unmarked) [5e] No

# strict comparison: is reported IC50 < 2 µM? input = Cc1ccc2[nH]c3c(c2c1)C[C@@]1(C)C(CC[C@]2(C)C1CC=C1C4[C@@H](C)[C@H](C)CC[C@]4(C(=O)NCCN)CC[C@]12C)C3(C)C (some centres unmarked) [4a] No

# strict comparison: is reported IC50 < 2 µM? input = COc1cccc2c1C(=O)c1c(O)c3c(c(O)c1C2=O)C[C@@](O)(C(=O)CO)C[C@@H]3O[C@H]1C[C@H](N)[C@H](O)[C@H](C)O1 [DOX, doxorubicin, reference compound] Yes

# strict comparison: is reported IC50 < 2 µM? input = CCN(CC)CCNC(=O)[C@]12CC[C@@H](C)[C@H](C)C1C1=CCC3[C@@]4(C)Cc5c([nH]c6ccc(C)cc56)C(C)(C)C4CC[C@@]3(C)[C@]1(C)CC2 (some centres unmarked) [4c] No

# strict comparison: is reported IC50 < 2 µM? input = CCN(CC)CCCCNC(=O)[C@]12CC[C@@H](C)[C@H](C)C1C1=CCC3[C@@]4(C)Cc5c([nH]c6ccc(C)cc56)C(C)(C)C4CC[C@@]3(C)[C@]1(C)CC2 (some centres unmarked) [6c] No

# strict comparison: is reported IC50 < 2 µM? input = Cc1ccc2[nH]c3c(c2c1)C[C@@]1(C)C(CC[C@]2(C)C1CC=C1C4[C@@H](C)[C@H](C)CC[C@]4(C(=O)NCCCCNC(=O)[C@]45CC[C@@H](C)[C@H](C)C4C4=CCC6[C@@]7(C)Cc8c([nH]c9ccc(C)cc89)C(C)(C)C7CC[C@@]6(C)[C@]4(C)CC5)CC[C@]12C)C3(C)C (some centres unmarked) [7c] No

# strict comparison: is reported IC50 < 2 µM? input = Cc1ccc2[nH]c3c(c2c1)C[C@@]1(C)C(CC[C@]2(C)C1CC=C1C4[C@@H](C)[C@H](C)CC[C@]4(C(=O)NCCCN)CC[C@]12C)C3(C)C (some centres unmarked) [5a] No

# strict comparison: is reported IC50 < 2 µM? input = Cc1ccc2[nH]c3c(c2c1)C[C@@]1(C)C(CC[C@]2(C)C1CC=C1C4[C@@H](C)[C@H](C)CC[C@]4(C(=O)NCCCN(C)C)CC[C@]12C)C3(C)C (some centres unmarked) [5b] Yes

###

Tested on: LO2 cells
experimental.details: MTT cytotoxicity assay, normal hepatocyte LO2
Format: cell-based
protocol.conditions: Homo sapiens, L02, 48 h exposure, normal hepatocyte cell line
measurement.type: IC50 (µM)
Record the value in µM, omitting the unit from your answer.

Answer with reported IC50 of Cc1ccc2[nH]c3c(c2c1)C[C@@]1(C)C(CC[C@]2(C)C1CC=C1C4[C@@H](C)[C@H](C)CC[C@]4(C(=O)NCCCN4CCOCC4)CC[C@]12C)C3(C)C (stereo partly drawn) 28.6

Answer with reported IC50 of CCN(CC)CCCNC(=O)[C@]12CC[C@@H](C)[C@H](C)C1C1=CCC3[C@@]4(C)Cc5c([nH]c6ccc(C)cc56)C(C)(C)C4CC[C@@]3(C)[C@]1(C)CC2 (stereo partly drawn) 15.8

Answer with reported IC50 of Cc1ccc2[nH]c3c(c2c1)C[C@@]1(C)C(CC[C@]2(C)C1CC=C1C4[C@@H](C)[C@H](C)CC[C@]4(C(=O)NCCCN(C)C)CC[C@]12C)C3(C)C (stereo partly drawn) 20.7

Answer with reported IC50 of Cc1ccc2[nH]c3c(c2c1)C[C@@]1(C)C(CC[C@]2(C)C1CC=C1C4[C@@H](C)[C@H](C)CC[C@]4(C(=O)NCCCCN4CCOCC4)CC[C@]12C)C3(C)C (stereo partly drawn) 35.4

Answer with reported IC50 of Cc1ccc2[nH]c3c(c2c1)C[C@@]1(C)C(CC[C@]2(C)C1CC=C1C4[C@@H](C)[C@H](C)CC[C@]4(C(=O)NCCN4CCN(C)CC4)CC[C@]12C)C3(C)C (stereo partly drawn) 18.3

Answer with reported IC50 of COc1cc([C@@H]2c3cc4c(cc3[C@@H](O[C@@H]3O[C@@H]5CO[C@@H](C)O[C@H]5[C@H](O)[C@H]3O)[C@H]3COC(=O)[C@H]23)OCO4)cc(OC)c1O [VP-16, etoposide, reference compound] 5.92

Answer with reported IC50 of Cc1ccc2[nH]c3c(c2c1)C[C@@]1(C)C(CC[C@]2(C)C1CC=C1C4[C@@H](C)[C@H](C)CC[C@]4(C(=O)NCCCN)CC[C@]12C)C3(C)C (stereo partly drawn) 21.3

###

measurement.type: melting point

Answer with reported melting point of Cc1ccc2[nH]c3c(c2c1)C[C@@]1(C)C(CC[C@]2(C)C1CC=C1C4[C@@H](C)[C@H](C)CC[C@]4(C(=O)NCCCCN(C)C)CC[C@]12C)C3(C)C (stereo partly shown) 163 to 165 °C

Answer with reported melting point of Cc1ccc2[nH]c3c(c2c1)C[C@@]1(C)C(CC[C@]2(C)C1CC=C1C4[C@@H](C)[C@H](C)CC[C@]4(C(=O)NCCN4CCOCC4)CC[C@]12C)C3(C)C (stereo partly shown) 104 to 105 °C

Answer with reported melting point of Cc1ccc2[nH]c3c(c2c1)C[C@@]1(C)C(CC[C@]2(C)C1CC=C1C4[C@@H](C)[C@H](C)CC[C@]4(C(=O)NCCNC(=O)[C@]45CC[C@@H](C)[C@H](C)C4C4=CCC6[C@@]7(C)Cc8c([nH]c9ccc(C)cc89)C(C)(C)C7CC[C@@]6(C)[C@]4(C)CC5)CC[C@]12C)C3(C)C (stereo partly shown) 301 to 303 °C

Answer with reported melting point of Cc1ccc2[nH]c3c(c2c1)C[C@@]1(C)C(CC[C@]2(C)C1CC=C1C4[C@@H](C)[C@H](C)CC[C@]4(C(=O)NCCCNC(=O)[C@]45CC[C@@H](C)[C@H](C)C4C4=CCC6[C@@]7(C)Cc8c([nH]c9ccc(C)cc89)C(C)(C)C7CC[C@@]6(C)[C@]4(C)CC5)CC[C@]12C)C3(C)C (stereo partly shown) 276 to 278 °C

Answer with reported melting point of Cc1ccc2[nH]c3c(c2c1)C[C@@]1(C)C(CC[C@]2(C)C1CC=C1C4[C@@H](C)[C@H](C)CC[C@]4(C(=O)NCCCN4CCCCC4)CC[C@]12C)C3(C)C (stereo partly shown) 183 to 185 °C

Answer with reported melting point of Cc1ccc2[nH]c3c(c2c1)C[C@@]1(C)C(CC[C@]2(C)C1CC=C1C4[C@@H](C)[C@H](C)CC[C@]4(C(=O)NCCCN)CC[C@]12C)C3(C)C (stereo partly shown) 205 to 207 °C

Answer with reported melting point of Cc1ccc2[nH]c3c(c2c1)C[C@@]1(C)C(CC[C@]2(C)C1CC=C1C4[C@@H](C)[C@H](C)CC[C@]4(C(=O)NCCN)CC[C@]12C)C3(C)C (stereo partly shown) 228 to 230 °C

Answer with reported melting point of Cc1ccc2[nH]c3c(c2c1)C[C@@]1(C)C(CC[C@]2(C)C1CC=C1C4[C@@H](C)[C@H](C)CC[C@]4(C(=O)NCCN(C)C)CC[C@]12C)C3(C)C (stereo partly shown) 166 to 168 °C

Answer with reported melting point of Cc1ccc2[nH]c3c(c2c1)C[C@@]1(C)C(CC[C@]2(C)C1CC=C1C4[C@@H](C)[C@H](C)CC[C@]4(C(=O)NCCN4CCCCC4)CC[C@]12C)C3(C)C (stereo partly shown) 195 to 197 °C

Answer with reported melting point of Cc1ccc2[nH]c3c(c2c1)C[C@@]1(C)C(CC[C@]2(C)C1CC=C1C4[C@@H](C)[C@H](C)CC[C@]4(C(=O)NCCCN4CCOCC4)CC[C@]12C)C3(C)C (stereo partly shown) 108 to 110 °C

Answer with reported melting point of Cc1ccc2[nH]c3c(c2c1)C[C@@]1(C)C(CC[C@]2(C)C1CC=C1C4[C@@H](C)[C@H](C)CC[C@]4(C(=O)NCCCCN4CCCCC4)CC[C@]12C)C3(C)C (stereo partly shown) 121 to 123 °C

Answer with reported melting point of CCN(CC)CCCCNC(=O)[C@]12CC[C@@H](C)[C@H](C)C1C1=CCC3[C@@]4(C)Cc5c([nH]c6ccc(C)cc56)C(C)(C)C4CC[C@@]3(C)[C@]1(C)CC2 (stereo partly shown) 132 to 134 °C

Answer with reported melting point of CCN(CC)CCCNC(=O)[C@]12CC[C@@H](C)[C@H](C)C1C1=CCC3[C@@]4(C)Cc5c([nH]c6ccc(C)cc56)C(C)(C)C4CC[C@@]3(C)[C@]1(C)CC2 (stereo partly shown) 147 to 149 °C

Answer with reported melting point of Cc1ccc2[nH]c3c(c2c1)C[C@@]1(C)C(CC[C@]2(C)C1CC=C1C4[C@@H](C)[C@H](C)CC[C@]4(C(=O)NCCN4CCN(C)CC4)CC[C@]12C)C3(C)C (stereo partly shown) 188 to 190 °C

Answer with reported melting point of Cc1ccc2[nH]c3c(c2c1)C[C@@]1(C)C(CC[C@]2(C)C1CC=C1C4[C@@H](C)[C@H](C)CC[C@]4(C(=O)NCCCCN)CC[C@]12C)C3(C)C (stereo partly shown) 256 to 258 °C

Answer with reported melting point of Cc1ccc2[nH]c3c(c2c1)C[C@@]1(C)C(CC[C@]2(C)C1CC=C1C4[C@@H](C)[C@H](C)CC[C@]4(C(=O)NCCCCNC(=O)[C@]45CC[C@@H](C)[C@H](C)C4C4=CCC6[C@@]7(C)Cc8c([nH]c9ccc(C)cc89)C(C)(C)C7CC[C@@]6(C)[C@]4(C)CC5)CC[C@]12C)C3(C)C (stereo partly shown) 255 to 258 °C
